Tested on: MG63 cells
Experiment: Detection of cell proliferation by cck-8
Format: cell-based
Conditions: Homo sapiens, MG-63; MG63, 24 h; read-out: IC50 (24 h)
pIC50: −log10 of the molar value.
measured-quantity: pIC50

>>> reported_value("COc1cc2c(Oc3ccc4[nH]c(C)cc4c3F)ccnc2cc1OCC1(N)CC1 [Anlotinib]")
4.52

###

Test system: U2OS cells
Assay: Detection of cell proliferation by cck-8
Type: cell-based
Details: Homo sapiens, 24 h, read-out: IC50 (24 h)
pIC50: −log10 of the molar value.
measured-quantity: pIC50

>>> reported_value("COc1cc2c(Oc3ccc4[nH]c(C)cc4c3F)ccnc2cc1OCC1(N)CC1")
4.38
